- TEST SUMMARY: Intrinsic clearance in CD1 mouse liver microsomes at 1 uM preincubated for 5 mins followed by NADPH addition and measured after 45 mins by LC/MS/MS analysis
- Format: ADME, microsome
- SETUP CONDITIONS: read-out: CLH
OBSERVED PROPERTY: CLint scaled at 1 µM

mol=O=C(N[C@@H](Cn1ccnc1)c1ccc(-c2ccc(F)cc2)cc1Cl)c1ccc(-c2nnc(-c3ccccc3)o2)cc1 observed_property="CLint scaled at 1 µM" measured_result="59.8 mL/min/kg"
mol=O=C(N[C@@H](Cn1ccnc1)c1ccc(-c2ccc(F)cc2)cc1Cl)c1ccc(-c2nnc(-c3ccncc3)o2)cc1 observed_property="CLint scaled at 1 µM" measured_result="99 mL/min/kg"
mol=[2H]c1c([2H])c([2H])c(-c2ccc([C@H](Cn3ccnc3)NC(=O)c3ccc(-c4nnc(-c5ccccc5)o4)cc3)c(Cl)c2)c([2H])c1[2H] observed_property="CLint scaled at 1 µM" measured_result="220 mL/min/kg"
mol=O=C(N[C@@H](Cn1ccnc1)c1ccc(-c2ccccc2)cc1Cl)c1ccc(-c2nnc(-c3ccccc3)o2)cc1 observed_property="CLint scaled at 1 µM" measured_result="34.2 mL/min/kg"
mol=O=C(N[C@@H](Cn1ccnc1)c1c(F)cc(-c2ccc(F)cc2)cc1F)c1ccc(-c2nnc(-c3ccccc3)o2)cc1 observed_property="CLint scaled at 1 µM" measured_result="237 mL/min/kg"
mol=O=C(N[C@@H](Cn1ccnc1)c1ccc(Cl)cc1Cl)c1ccc(-c2nnc(-c3ccc(F)c(F)c3)o2)cc1 observed_property="CLint scaled at 1 µM" measured_result="55.8 mL/min/kg"
mol=CS(=O)(=O)c1ccc(-c2ccc([C@H](Cn3ccnc3)NC(=O)c3ccc(-c4nnc(-c5ccccc5)o4)cc3)c(Cl)c2)cc1 observed_property="CLint scaled at 1 µM" measured_result="127 mL/min/kg"
mol=O=C(N[C@@H](Cn1ccnc1)c1ccc(-c2ccc(F)cc2)cc1F)c1ccc(-c2nnc(-c3ccccc3)o2)cc1 observed_property="CLint scaled at 1 µM" measured_result="145 mL/min/kg"
mol=O=C(N[C@@H](Cn1ccnc1)c1ccc(-c2ccc(F)cc2)cc1Cl)c1ccc(-c2nnc(-c3ccccn3)o2)cc1 observed_property="CLint scaled at 1 µM" measured_result="105 mL/min/kg"
